test system: MM1S; experiment: Cell proliferation assay MM1S; format: cell-based; details: Homo sapiens, MM1.S, Myeloma, method of Example 5
pEC50: −log10 of the molar value.

CHEMICAL_STRING: CCN(CCN(C)C)C(=O)CNCc1cc(CNC(=O)C(F)(F)F)ccn1
pEC50: > 6.60

###

Let's look at some compounds and their measured IC50.
Protein target, amino acids: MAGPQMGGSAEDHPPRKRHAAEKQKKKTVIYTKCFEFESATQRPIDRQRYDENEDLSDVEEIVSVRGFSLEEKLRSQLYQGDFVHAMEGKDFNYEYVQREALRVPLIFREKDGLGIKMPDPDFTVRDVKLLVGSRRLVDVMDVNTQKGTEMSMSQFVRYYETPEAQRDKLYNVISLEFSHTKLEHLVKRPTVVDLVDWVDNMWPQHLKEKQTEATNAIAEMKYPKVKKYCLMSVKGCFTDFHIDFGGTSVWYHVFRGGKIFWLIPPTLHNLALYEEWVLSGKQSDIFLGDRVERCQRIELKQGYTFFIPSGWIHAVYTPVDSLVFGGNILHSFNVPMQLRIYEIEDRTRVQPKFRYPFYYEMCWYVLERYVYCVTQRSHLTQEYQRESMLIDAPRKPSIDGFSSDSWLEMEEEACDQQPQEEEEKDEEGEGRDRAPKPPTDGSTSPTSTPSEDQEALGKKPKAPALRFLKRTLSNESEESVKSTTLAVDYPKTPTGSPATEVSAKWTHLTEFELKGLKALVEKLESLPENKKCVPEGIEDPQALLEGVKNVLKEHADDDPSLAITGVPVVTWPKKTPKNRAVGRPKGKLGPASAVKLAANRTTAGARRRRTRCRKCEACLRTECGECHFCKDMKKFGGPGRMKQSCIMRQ

COMPOUND: CCN(CC)C(=O)CNCc1cc(C=O)ccn1
IC50: > 2500 nM

COMPOUND: CCSCCNCc1cc(/C=N/C2CC2)ccn1
IC50: 250 to 2500 nM

COMPOUND: CCN(CC)CCCCNC(=O)CNCc1cc(/C=N/C2CC2)ccn1
IC50: > 2500 nM

COMPOUND: O=Cc1ccnc(CNCC(=O)N2CCC[C@@H]2CN2CCCC2)c1
IC50: > 2500 nM

COMPOUND: CCN(CCN(C)C)C(=O)CNCc1cc(/C=N/CC(CO)C2CCCCC2)ccn1 (stereo not drawn)
IC50: > 2500 nM

COMPOUND: CCN(CCN(C)C)C(=O)CNCc1cc(/C=N/CCCO)ccn1
IC50: > 2500 nM

COMPOUND: CCN(CCN1CCC1)C(=O)CNCc1cc(CNC(=O)C(F)(F)F)ccn1
IC50: > 2500 nM

COMPOUND: N#CCNCc1ccnc(CNCCCCN(Cc2ccccc2)C2CC2)c1
IC50: > 2500 nM

COMPOUND: CCN(CCN(C)C)C(=O)CNCc1cc(/C=N/CCC2CCCCC2)ccn1
IC50: 250 to 2500 nM

###

target: KDM4C (JMJD2C) (Homo sapiens); assay: Histone lysine demethylase AlphaLISA assay, KDM4C; assay type: biochemical; conditions: read-out: KDM4C HDME Inhibition IC50
Sequence (Q9H3R0 1-349): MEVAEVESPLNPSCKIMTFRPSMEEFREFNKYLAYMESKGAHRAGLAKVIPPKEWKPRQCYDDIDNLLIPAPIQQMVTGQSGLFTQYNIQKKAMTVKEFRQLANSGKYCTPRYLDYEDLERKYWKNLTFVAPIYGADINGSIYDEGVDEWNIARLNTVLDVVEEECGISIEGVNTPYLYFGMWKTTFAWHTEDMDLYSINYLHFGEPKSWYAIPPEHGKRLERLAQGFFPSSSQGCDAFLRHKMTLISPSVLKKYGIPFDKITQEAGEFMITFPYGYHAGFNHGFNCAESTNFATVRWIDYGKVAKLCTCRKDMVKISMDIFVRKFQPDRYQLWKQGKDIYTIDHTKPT
pIC50: −log10 of the molar value.
Let's look at some compounds and their measured pIC50.
QUANTITY_NAME: pIC50

COMPOUND: CC(C#N)NCc1ccnc(CNCCCN(C)C)c1 (stereo not shown) [Compound 22]
QUANTITY_NAME: pIC50
MEASURED: < 5.60
--
COMPOUND: CCN(CC)CCCCNCc1cc(CN)ccn1 [Compound 5]
QUANTITY_NAME: pIC50
MEASURED: < 5.60
--
COMPOUND: CCN(CCN(C)C)C(=O)CNCc1cc(/C=N/CC(CO)C2CCCCC2)ccn1 (stereo not shown) [Compound 81]
QUANTITY_NAME: pIC50
MEASURED: 5.60 to 6.60
--
COMPOUND: CN(C)CCCCCNCc1cc(/C=N/C2CC2)ccn1 [Compound 47]
QUANTITY_NAME: pIC50
MEASURED: < 5.60
--
COMPOUND: CN(C)CCCNCc1cc(CN)ccn1 [Compound 3]
QUANTITY_NAME: pIC50
MEASURED: < 5.60
--
COMPOUND: CNCc1ccnc(CNCCCN(C)Cc2ccccc2)c1 [Compound 17]
QUANTITY_NAME: pIC50
MEASURED: 5.60 to 6.60
--
COMPOUND: CCN(CC)CCCCNCc1cc(/C=N\CCC2CCCCC2)ccn1 [Compound 67]
QUANTITY_NAME: pIC50
MEASURED: 5.60 to 6.60
--
COMPOUND: CCN(CC)CCCCNCc1cc(CNC(=O)C(=O)OC(C)(C)C)ccn1 [Compound 28]
QUANTITY_NAME: pIC50
MEASURED: < 5.60
--
COMPOUND: CCN(CC)CCCCN(Cc1cc(C=O)ccn1)C(=O)C(F)(F)F [Compound 115]
QUANTITY_NAME: pIC50
MEASURED: < 5.60
--
COMPOUND: CN(C)CCCCNCc1cc(CN)ccn1 [Compound 2]
QUANTITY_NAME: pIC50
MEASURED: < 5.60
--
COMPOUND: CCN1CCCC1CNC(=O)CNCc1cc(/C=N/C2CC2)ccn1 (stereo not shown) [Compound 51]
QUANTITY_NAME: pIC50
MEASURED: < 5.60
--
COMPOUND: CN(C)CC1CCC(CNCc2cc(/C=N/C3CC3)ccn2)CC1 (stereo not shown) [Compound 46]
QUANTITY_NAME: pIC50
MEASURED: < 5.60
--
COMPOUND: C(=N/C1CC1)/c1ccnc(CNCCCN2CCCC2)c1 [Compound 42]
QUANTITY_NAME: pIC50
MEASURED: < 5.60
--
COMPOUND: CCN(CC)C(=O)CNCc1cc(C=O)ccn1 [Compound 105]
QUANTITY_NAME: pIC50
MEASURED: < 5.60
--
COMPOUND: CCN(CCN(C)C)C(=O)CNCc1cc(CNC(=O)C(F)(F)C(F)(F)C(F)(F)F)ccn1 [Compound 31]
QUANTITY_NAME: pIC50
MEASURED: < 5.60
--
COMPOUND: CCSCCNCc1cc(/C=N/C2CC2)ccn1 [Compound 39]
QUANTITY_NAME: pIC50
MEASURED: < 5.60
--
COMPOUND: CN(C)CCNCc1cc(C=O)ccn1 [Compound 110]
QUANTITY_NAME: pIC50
MEASURED: < 5.60
--
COMPOUND: CCN(CCN(C)C)C(=O)CNCc1cc(CNC(=O)C(F)(F)F)ccn1 [Compound 25]
QUANTITY_NAME: pIC50
MEASURED: < 5.60
--
COMPOUND: O=Cc1ccnc(CNCC(=O)N2CCC[C@@H]2CN2CCCC2)c1 [Compound 102]
QUANTITY_NAME: pIC50
MEASURED: > 6.60
--
COMPOUND: CN1CCN(C(=O)CNCc2cc(C=O)ccn2)CC1 [Compound 103]
QUANTITY_NAME: pIC50
MEASURED: < 5.60
--
COMPOUND: O=Cc1ccnc(CNCC(=O)N2CCC(Cc3ccccc3)CC2)c1 [Compound 106]
QUANTITY_NAME: pIC50
MEASURED: 5.60 to 6.60
--
COMPOUND: OCC/N=C/c1ccnc(CNCCc2ccccc2OCc2ccccc2)c1 [Compound 93]
QUANTITY_NAME: pIC50
MEASURED: < 5.60
